Each recorded value in this set is attributed to BigSolDB 2.1.

conditions: in isopropanol, 288.15 K
Endpoint Name: solubility (mole fraction)

> print(dat)
   compound.structure.string               endpoint.name  reading
1          COC(=O)c1nc[nH]n1  solubility (mole fraction)  0.00146

* * *

settings: in 2-pentanone, 302.65 K
Endpoint Name: solubility (mole fraction)

> print(dat)
   compound.structure.string  reading
1          COC(=O)c1nc[nH]n1  0.00192

* * *

settings: in ethanol, 312.65 K
Endpoint Name: solubility (mole fraction)

> print(dat)
   compound.structure.string  reading
1          COC(=O)c1nc[nH]n1  0.00602

* * *

settings: in methanol, 301.65 K
Endpoint Name: solubility (mole fraction)

> print(dat)
   compound.structure.string               endpoint.name  reading
1          COC(=O)c1nc[nH]n1  solubility (mole fraction)  0.00645

* * *

settings: in acetonitrile, 297.05 K
Endpoint Name: solubility (mole fraction)

> print(dat)
   compound.structure.string               endpoint.name  reading
1          COC(=O)c1nc[nH]n1  solubility (mole fraction)  0.00168

* * *

details: in THF, 317.95 K
Endpoint Name: solubility (mole fraction)

> print(dat)
   compound.structure.string  reading
1          COC(=O)c1nc[nH]n1  0.00875

* * *

conditions: in MIBK, 303.05 K
Endpoint Name: solubility (mole fraction)

> print(dat)
   compound.structure.string               endpoint.name  reading
1          COC(=O)c1nc[nH]n1  solubility (mole fraction)  0.00127

* * *

details: in acetone, 292.55 K
Endpoint Name: solubility (mole fraction)

> print(dat)
   compound.structure.string  reading
1          COC(=O)c1nc[nH]n1  0.00232

* * *

conditions: in isobutanol, 307.15 K
Endpoint Name: solubility (mole fraction)

> print(dat)
   compound.structure.string  reading
1          COC(=O)c1nc[nH]n1  0.00337

* * *

details: in acetone, 278.15 K
Endpoint Name: solubility (mole fraction)

> print(dat)
   compound.structure.string  reading
1          COC(=O)c1nc[nH]n1  0.00153

* * *

details: in isobutanol, 283.35 K
Endpoint Name: solubility (mole fraction)

> print(dat)
   compound.structure.string               endpoint.name  reading
1          COC(=O)c1nc[nH]n1  solubility (mole fraction)  0.00116

* * *

conditions: in n-butanol, 288.15 K
Endpoint Name: solubility (mole fraction)

> print(dat)
   compound.structure.string  reading
1          COC(=O)c1nc[nH]n1  0.00246

* * *

conditions: in THF, 283.05 K
Endpoint Name: solubility (mole fraction)

> print(dat)
   compound.structure.string  reading
1          COC(=O)c1nc[nH]n1  0.00137

* * *

conditions: in cyclopentanone, 317.65 K
Endpoint Name: solubility (mole fraction)

> print(dat)
   compound.structure.string  reading
1          COC(=O)c1nc[nH]n1  0.00632
